Examples of variants with documented protein stability index follow.
B1: PTPLAD1 (parent)
chain: YSFYMLTCIDMDWKVLTWLRYTLW

variants of: B1; experiment: protein stability index of a GFP-peptide fusion (GPS, HEK-293T) (PSI 1-6); higher = more stable; settings: c terminus: a fixed tail appended;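 further: lentivirally expressed fusions sorted by FACS into six bins by GFP to DsRed ratio, PSI derived from sequencing read proportions per bin multiplied by bin number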
API note: the answer field is a bare number with no unit suffix.

Consider the following illustrative entries.
> print(dat)
                     sequenceentry  observedmeasurement
1   YSFYMLTCNDMDWKVLTWLRYTLW [I9N]                 2.78
2  YSFYMLTCIDMMWKVLTWLRYTLW [D12M]                 1.51
3  YSFYMLTCIDMDIKVLTWLRYTLW [W13I]                 3.42
4   YSFYMLTLIDMDWKVLTWLRYTLW [C8L]                 2.85
5   YSFYMLTCPDMDWKVLTWLRYTLW [I9P]                 2.05

Fill blank: measured protein stability index of the variant YSFYMLTCIDMDWKVLTWLVYTLW [R20V] is ____. 2.13

Fill blank: measured protein stability index of the variant YSFYMLTCIDMWWKVLTWLRYTLW [D12W] is ____. 1.82

Fill blank: measured protein stability index of the variant YSFYMLTCIDMDWKVLTWLRYTAW [L23A] is ____. 3.26

Fill blank: measured protein stability index of the variant YSFYMLTGIDMDWKVLTWLRYTLW [C8G] is ____. 3.31
